Recorded values, source the supplement of paper PMC6757056.

B1: library; a variant is named by its letters at N, in order (parent)
chain: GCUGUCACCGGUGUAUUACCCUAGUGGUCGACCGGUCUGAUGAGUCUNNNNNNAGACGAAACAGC

# Variants of: B1
# ASSAY TEXT: normalized RNA/DNA level without ligand (relative to sTRSVctl = 100) (log10 (% of sTRSVctl)); ligand: hypoxanthine (xanthine aptamer); higher = less ribozyme self-cleavage, higher mRNA level
# CONDITION SUMMARY: HEK293T, reporter: mCherry (pCS4076), ligand present: no
ENDPOINT LABEL: normalized RNA/DNA level without ligand (log10)
Answers are plain numbers.

Illustrative cases are given below, each with its answer.
>  <VARIANT KEY>
UCAUAG

>  <QUANTITATIVE RESULT>
1.69

$$$$
>  <VARIANT KEY>
AGUUUC

>  <QUANTITATIVE RESULT>
1.93

$$$$
>  <VARIANT KEY>
GGUCUG

>  <QUANTITATIVE RESULT>
1.71

$$$$
>  <VARIANT KEY>
AAAUUG

>  <QUANTITATIVE RESULT>
1.54

$$$$
>  <VARIANT KEY>
CUCCCU

>  <QUANTITATIVE RESULT>
1.97

$$$$

// for each variant in input: emit normalized RNA/DNA level without ligand (log10)
1. CCAACC
2. UCGAAC
3. CUUCCU

Result:
1. 1.95
2. 1.73
3. 1.96

Provide reported normalized RNA/DNA level without ligand (log10) for each item, in the same order as listed.
1. CCCUAU
2. ACUACC

Result:
1.94
1.9

Task: Requested field: normalized RNA/DNA level without ligand (log10). Item: ACUGUU
Result: 1.81
